target: human T-bet (Homo sapiens, UniProt Q9UL17); construct: expressed in transfected cells; host or cells: engineered HEK cells (HEKT-bet); test: HEKT-bet-luc assay (T-bet dependent luciferase reporter in engineered HEK cells); type: cell-based; details: Table 3; HEKT-bet cells, compound 24 hours; IC50 normalized to reference ER-213038; read-out: IC50
Sequence (Q9UL17 whole entry): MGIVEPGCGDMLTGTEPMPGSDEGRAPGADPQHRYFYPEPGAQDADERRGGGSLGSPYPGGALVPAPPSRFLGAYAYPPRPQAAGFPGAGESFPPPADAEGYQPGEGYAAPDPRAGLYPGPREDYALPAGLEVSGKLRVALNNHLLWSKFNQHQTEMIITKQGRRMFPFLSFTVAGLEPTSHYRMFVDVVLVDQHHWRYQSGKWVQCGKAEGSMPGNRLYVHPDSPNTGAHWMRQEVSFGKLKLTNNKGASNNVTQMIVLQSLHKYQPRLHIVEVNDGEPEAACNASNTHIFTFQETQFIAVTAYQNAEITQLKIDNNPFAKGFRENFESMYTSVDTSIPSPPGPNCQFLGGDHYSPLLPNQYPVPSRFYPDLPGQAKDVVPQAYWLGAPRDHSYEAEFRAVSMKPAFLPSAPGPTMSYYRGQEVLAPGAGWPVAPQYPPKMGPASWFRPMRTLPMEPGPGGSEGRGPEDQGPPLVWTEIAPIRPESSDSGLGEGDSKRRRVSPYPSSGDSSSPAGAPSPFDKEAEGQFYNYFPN
pIC50: −log10 of the molar value.
This listing pairs compounds with measured pIC50.
RECORDED METRIC: pIC50

>>> value_measured("COCCN1C(=O)N(Cc2cccc(OC)c2)C(=O)C12CCN(Cc1ccccc1OC(F)(F)F)CC2")
5.87
>>> value_measured("COCCN1C(=O)N(Cc2cccc(OC)c2)C(=O)C12CCN(Cc1cc(F)cc3c1OCOC3)CC2")
5.88
>>> value_measured("COCCN1C(=O)N(Cc2cccc(OC)c2)C(=O)C12CCN(CC(=O)C13CC4CC(CC(C4)C1)C3)CC2")
5.78
>>> value_measured("COCCN1C(=O)N(Cc2ccoc2)C(=O)C12CCN(Cc1cc(OC)cc(OC)c1)CC2")
6.03
>>> value_measured("CCN1C(=O)N(Cc2ccc3ccccc3c2)C(=O)C12CCN(Cc1ccc3ccccc3c1)CC2")
6.01
>>> value_measured("COc1cccc(CN2CCC3(CC2)C(=O)N(Cc2cc(OC)cc(OC)c2)C(=O)N3Cc2ccc3c(c2)nnn3C)c1")
5.97
>>> value_measured("CCOC(=O)CCCCN1C(=O)N(Cc2cccc(OC)c2)C(=O)C12CCN(Cc1ccccc1)CC2")
5.86
